The origin of these recorded values is paper PMC2702170.

- assayed.target: T1, Rep40 (Adeno-associated virus 2 (AAV2), UniProt Q89269 1-312)
- T1 sequence: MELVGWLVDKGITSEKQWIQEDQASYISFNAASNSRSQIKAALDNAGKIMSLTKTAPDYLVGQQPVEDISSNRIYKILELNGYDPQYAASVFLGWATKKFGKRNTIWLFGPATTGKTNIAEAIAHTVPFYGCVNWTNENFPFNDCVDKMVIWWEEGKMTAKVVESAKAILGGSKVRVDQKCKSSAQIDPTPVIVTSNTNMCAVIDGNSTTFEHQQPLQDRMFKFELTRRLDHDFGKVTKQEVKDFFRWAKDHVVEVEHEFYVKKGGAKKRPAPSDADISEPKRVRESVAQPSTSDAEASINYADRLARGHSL
- assay.protocol: fluorescence anisotropy; Anisotropy: 20 mM HEPES pH 7.5, 50 mM NaCl, 5 nM DNA, 20 C, 15 min. SEC: 25 mM Tris-HCl pH 8.0 (4 C), 200 mM NaCl, 5% glycerol, 1 mM TCEP, 16.6 uM protein, 30 min on ice
- condition.summary: protein: recombinant; label: 5' 6-carboxyfluorescein
measurement.name: Kd

GET /values?readout=Kd&item= TTTTTTTTTTTTTTTTTTTTTTTTTTTTTTTTTTTTTT (ssDNA) [poly-dT38 5'-FAM]
~3.5 µM
